# Tested on: L1210 murine leukemia cells, cyclophosphamide-sensitive (/0)
# EXPERIMENTAL_PROTOCOL: In vitro soft agar colony-forming cytotoxicity assay, cyclophosphamide-sensitive L1210 cells
# Assay type: cell-based, mouse
# Parameters: unit not given here
# CONDITION_DETAILS: L1210 /0 (sensitive); 1-hour exposure, 99% cell kill
Returns one of TRUE or FALSE; TRUE when LC99 is >= 30.

{"columns": ["COMPOUND", "GROUP"],
 "data": [
  ["O=P1(N(CCCl)CCCl)NC(OO)CC(c2ccccc2)O1 (stereo not shown) [Compound 4, 4-hydroperoxy-6-phenylcyclophosphamide]", "FALSE"],
  ["O=P1(N(CCCl)CCCl)NC(OO)CC(c2cccnc2)O1 (stereo not shown)", "TRUE"],
  ["O=P1(N(CCCl)CCCl)NC(OO)CC(c2ccncc2)O1 (stereo not shown)", "TRUE"],
  ["O=P1(N(CCCl)CCCl)NC(OO)CCO1 (stereo not shown) [Ref, reference compound]", "FALSE"],
  ["O=P1(N(CCCl)CCCl)NC(OO)CC(c2ccc(F)cc2)O1 (stereo not shown)", "FALSE"],
  ["CC1CC(OO)NP(=O)(N(CCCl)CCCl)O1 (stereo not shown) [Compound 1, 4-hydroperoxy-6-methylcyclophosphamide]", "TRUE"],
  ["Cc1ccc(C2CC(OO)NP(=O)(N(CCCl)CCCl)O2)cc1 (stereo not shown) [Compound 6, 4-Hydroperoxy-6-p-tolylcyclophosphamide]", "FALSE"],
  ["CC(C)C1CC(OO)NP(=O)(N(CCCl)CCCl)O1 (stereo not shown)", "TRUE"],
  ["O=P1(N(CCCl)CCCl)NC(OO)CC(CCc2ccccc2)O1 (stereo not shown)", "FALSE"],
  ["O=[N+]([O-])c1ccc(C2CC(OO)NP(=O)(N(CCCl)CCCl)O2)cc1 (stereo not shown)", "FALSE"]
]}
